target: human GPR40 (Homo sapiens); test: Inositol Phosphate Turnover (IP1) Assay 2; format: cell-based; parameters: expressed in transfected cells; conditions: HEK cells stably expressing human GPR40, Table 2, read-out: Human IP1
outcome-measure: pEC50
By convention, pEC50 is the negative base-10 log of a molar concentration.

Record excerpt, results attached:
**Q:** Bench note: what pEC50 did COc1cc(-c2ccc(C3CCc4ccc([C@H](C5CC5)[C@H](C)C(=O)O)cc4O3)cc2)ccn1 (single isomer, unassigned) [Example 118b] show?
**A:** 8.23

**Q:** And what about the compound COc1ccc(F)c(-c2ccc(C3CCc4ccc([C@@H](CC(=O)O)C5CC5)cc4O3)cc2)c1F (stereo partly drawn) [Example 82] ?
**A:** 7.27

**Q:** And what about the compound COc1ccc(F)c(-c2ccc(C3CCc4ccc(C(C5CCC5)C(C)C(=O)O)cc4O3)cc2)c1 (single isomer, unassigned) [Example 158] ?
**A:** 6.88

**Q:** And what about the compound COc1cc(-c2ccc(C3CCc4ccc([C@H](C5CC5)[C@H](C)C(=O)O)cc4O3)nc2C)ccn1 (single isomer, unassigned) [Example 119a] ?
**A:** 8.39

**Q:** And what about the compound COc1ccc(F)c(-c2ccc(C3CCc4ccc([C@H](C5CC5)[C@H](C)C(=O)O)cc4O3)nc2)c1 (single isomer, unassigned) [Example 97a] ?
**A:** 9.05

Next compound, pEC50 to be filled in.
**Q:** Bench note: what pEC50 did COc1cc(-c2ccc(C3CCc4ccc([C@@H](CC(=O)O)C5CC5)cc4O3)cc2)ccn1 (stereo partly drawn) [Example 74] show?
**A:** 7.72

----------
biological target: human GPR40 (Homo sapiens); test: Inositol Phosphate Turnover (IP1) Assay 2; type: cell-based; parameters: expressed in transfected cells; conditions: HEK cells stably expressing human GPR40, Table 2, read-out: Human IP1
Listing: EC50 of selected compounds
Just the number plus its unit, please.

Record excerpt, results attached:
**Q:** Bench note: what EC50 did COc1ccc(F)c(-c2ccc(C3CCc4ccc([C@@H](CC(=O)O)C5CC5)cc4O3)nc2)c1 (mixture of isomers) show?
**A:** 16 nM

**Q:** And what about the compound CCOc1cc(-c2ccc(C3CCc4ccc([C@@H](CC(=O)O)C5CC5)cc4O3)cc2)ccc1F (stereo partly drawn) ?
**A:** 1520 nM

**Q:** And what about the compound COc1ccc(F)c(-c2ccc(C3CCc4ccc([C@H](C5CC5)[C@H](C)C(=O)O)cc4O3)cc2OC(F)(F)F)c1 (mixture of isomers) ?
**A:** 32 nM

***
**Q:** Bench note: what EC50 did COc1ccc(F)c(-c2ccc(C3CCc4ccc([C@@H](CC(=O)O)C5CC5)cc4O3)cc2C(OC)C(C)(C)C)c1 (single isomer, unassigned) [Example 125d] show?
**A:** 256 nM

**Q:** And what about the compound COc1ccc(F)c(-c2cnc(C3CCc4ccc([C@H](C5CC5)[C@H](C)C(=O)O)cc4O3)c(F)c2)c1 (single isomer, unassigned) [Example 105b] ?
**A:** 0.79 nM

**Q:** And what about the compound COc1ccc(F)c(-c2ccc(C3CCc4ccc([C@H](C5CC5)[C@@H](C)C(=O)O)cc4O3)nc2)c1 (single isomer, unassigned) [Example 97d] ?
**A:** 43 nM

----------
molecular target: UniProtKB O14842; test: Inositol Phosphate Turnover (IP1) Assay 2; assay type: cell-based; parameters: expressed in transfected cells; settings: HEK cells stably expressing human GPR40, Table 2, read-out: Human IP1
outcome-measure: pEC50
By convention, pEC50 is the negative base-10 log of a molar concentration.

**Q:** Bench note: what pEC50 did COc1ccc(F)c(-c2ccc(C3CCc4ccc(C(C)C(C)C(=O)O)cc4O3)cc2)c1 (single isomer, unassigned) [Example 144] show?
**A:** 5.85

**Q:** And what about the compound COc1cc(-c2ccc(C3CCc4ccc([C@H](C5CC5)[C@H](C)C(=O)O)cc4O3)cc2)c(F)cn1 (single isomer, unassigned) [Example 117a] ?
**A:** 9.05

**Q:** And what about the compound COc1ccc(Cl)c(-c2ccc(C3CCc4ccc([C@@H](CC(=O)O)C5CC5)cc4O3)c(F)c2)c1 (mixture of isomers) ?
**A:** 7.72

**Q:** And what about the compound COc1ccc(F)c(-c2ccc(C3CCc4ccc(C(C)C(C)C(=O)O)cc4O3)cc2)c1 (single isomer, unassigned) [Example 145] ?
**A:** 7.11

**Q:** And what about the compound COc1cc(-c2ccc(C3CCc4ccc([C@H](C5CC5)[C@H](C)C(=O)O)cc4O3)nc2C)ccn1 (single isomer, unassigned) [Example 119b] ?
**A:** 8.11

**Q:** And what about the compound COc1ccc(F)c(-c2ccc(C3CCc4ccc(C(C5CCC5)C(C)C(=O)O)cc4O3)cc2)c1 (single isomer, unassigned) [Example 153] ?
**A:** 7.66

----------
target: human GPR40 (Homo sapiens, UniProt O14842); experiment: Inositol Phosphate Turnover (IP1) Assay 2; format: cell-based; set-up: expressed in transfected cells; details: HEK cells stably expressing human GPR40, Table 2, read-out: Human IP1
Sequence (O14842 whole entry): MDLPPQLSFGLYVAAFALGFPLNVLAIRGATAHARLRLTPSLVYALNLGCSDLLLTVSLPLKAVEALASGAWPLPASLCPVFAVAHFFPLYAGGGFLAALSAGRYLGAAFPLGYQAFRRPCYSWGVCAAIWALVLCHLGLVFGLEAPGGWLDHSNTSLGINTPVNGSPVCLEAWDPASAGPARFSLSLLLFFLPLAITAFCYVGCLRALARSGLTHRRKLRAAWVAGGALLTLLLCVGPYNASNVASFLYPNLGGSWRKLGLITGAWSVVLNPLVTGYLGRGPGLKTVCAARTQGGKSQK
Label Fulfilled when EC50 is strictly below 10 nM; otherwise label Not fulfilled.

Previously resolved entries follow.
**Q:** Hi there! Is EC50 for COc1ccc(F)c(-c2cnc(C3CCc4ccc([C@H](C5CC5)[C@H](C)C(=O)O)cc4O3)c(C)c2)c1 (single isomer, unassigned) [Example 115b] below 10 nM, do you know?
**A:** Not fulfilled

**Q:** And what about the compound COc1cc(-c2ccc(C3CCc4ccc([C@H](C5CC5)[C@H](C)C(=O)O)cc4O3)cc2)ccn1 (single isomer, unassigned) [Example 118a] ?
**A:** Fulfilled

**Q:** And what about the compound COc1cccc(-c2ccc(C3CCc4ccc([C@@H](CC(=O)O)C5CC5)cc4O3)cc2)n1 (stereo partly drawn) ?
**A:** Not fulfilled

**Q:** And what about the compound COc1cc(-c2ccc(C3CCc4ccc([C@H](C5CC5)[C@H](C)C(=O)O)cc4O3)c(F)c2)c(F)cn1 (single isomer, unassigned) [Example 109b] ?
**A:** Fulfilled

**Q:** And what about the compound COc1ccc(F)c(-c2cc(F)c(C3CCc4ccc([C@H](C5CC5)[C@H](C)C(=O)O)cc4O3)nc2C)c1 (single isomer, unassigned) [Example 113b] ?
**A:** Not fulfilled

# next compound below
**Q:** Hi there! Is EC50 for COc1ccc(F)c(-c2ccc(C3CCc4ccc([C@@H](CC(=O)O)C5CC5)cc4O3)cc2)c1 (single isomer, unassigned) [Example 62] below 10 nM, do you know?
**A:** Not fulfilled

----------
biological target: human GPR40 (Homo sapiens); assay: FLIPR assay (agonist-induced calcium mobilization); details: Human FLIPR EC50, nM or % activation (EC50 values), GPR40/CHO NFAT BLA cells
outcome-measure: EC50 (nM)
Write the value in nM as a bare number.

Record excerpt, results attached:
**Q:** Bench note: what EC50 did Cc1ccccc1-c1ccc(C2CCc3cc4c(cc3O2)OC[C@H]4CC(=O)O)c(F)c1 (stereo partly shown) show?
**A:** 1050

**Q:** And what about the molecule Cc1cccc(C)c1-c1cccc(C2CCc3nc(CCC(=O)O)ccc3O2)c1 (stereo not shown) ?
**A:** 1310

**Q:** And what about the molecule CC#CC(CC(=O)O)c1ccc2c(c1)CCC(c1nc(-c3ccc(OC)nc3C)ccc1F)O2 (mixture of isomers) ?
**A:** 106

***
**Q:** Bench note: what EC50 did CC#C[C@@H](CC(=O)O)c1ccc2c(c1)CCC(c1ccc(OCc3ccccc3)cc1)O2 (mixture of isomers) show?
**A:** 9

**Q:** And what about the molecule Cc1ccccc1-c1cccc(C2CCc3cc4c(cc3O2)OC[C@H]4CC(=O)O)c1F (mixture of isomers) ?
**A:** 1040

**Q:** And what about the molecule Cc1cc(OCCS(C)(=O)=O)cc(C)c1-c1cccc(C2CCc3cc(CCC(=O)O)ccc3O2)c1 (racemic) ?
**A:** 185

**Q:** And what about the molecule CC#C[C@@H](CC(=O)O)c1ccc2c(c1)CCC(c1cc(-c3ccc(OC)nc3C)ccc1F)O2 (single isomer, unassigned) [Example 37] ?
**A:** 38

----------
Biological target: human GPR40 (Homo sapiens)
Test: Inositol Phosphate Turnover (IP1) Assay 2
Format: cell-based
Set-up: expressed in transfected cells
Details: HEK cells stably expressing human GPR40, Table 3, read-out: Human IP1 activity
Description: Human and mouse GPR40 stable cell-lines were generated in CHO cells stably expressing NFAT BLA (Beta-lactamase). A human GPR40 stable cell-line was generated in HEK cells stably expressing the aequorin expressing reporter. […] Measurement of Inositol Phosphate Turnover (IP1) is performed using the CisBio IP-One kit (Part number 62IPAPEB). […] The plates are then read in a Perkin Elmer EnVision or equivalent reader able to measure FRET.
pEC50: −log10 of the molar value.
pEC50 below 8 gives not met; pEC50 at or above it gives met.

**Q:** Could you tell me if the measured pEC50 of COc1ccc(F)c(-c2ccc(C3COc4ccc([C@H](C5CC5)[C@H](C)C(=O)O)c(F)c4O3)cc2)c1 (single isomer, unassigned) [Example 185] reaches 8 or more?
**A:** met

**Q:** And what about the compound "C[C@H](C(=O)O)[C@H](c1ccc2c(c1)O[C@H](C1CN([C@@H](C)c3cc(C(F)(F)F)ccc3C(F)(F)F)C1)CO2)C1CC1" ?
**A:** not met

**Q:** And what about the compound COc1ccc(F)c(-c2ccc(C3COc4ccc([C@H](C5CC5)[C@H](C)C(=O)O)cc4O3)nc2)c1 (single isomer, unassigned) [Example 161] ?
**A:** met

***
**Q:** Could you tell me if the measured pEC50 of C[C@H](C(=O)O)[C@H](c1ccc2c(c1)OC(C1CN(Cc3cc(C(F)(F)F)ccc3C(F)(F)F)C1)CO2)C1CC1 (single isomer, unassigned) [Example 188] reaches 8 or more?
**A:** met

**Q:** And what about the compound COc1ccc(F)c(-c2ccc(C3COc4ccc([C@H](C5CC5)[C@H](C)C(=O)O)cc4O3)cc2)c1 (single isomer, unassigned) [Example 174] ?
**A:** met

**Q:** And what about the compound COc1ccc(F)c(-c2ccc(C3COc4ccc([C@@H](CC(=O)O)C5CC5)cc4O3)cc2)c1 (single isomer, unassigned) [Example 168] ?
**A:** not met
